// values below are reported EC50 of cytotoxicity (LDH), sCAR-T cells + switch vs CD19+ RS4;11, assay DTR-5-15 (PBMC)
Measured target: T1, CD19 (UniProt P15391 20-556, limits assumed)
T1 sequence (looked up): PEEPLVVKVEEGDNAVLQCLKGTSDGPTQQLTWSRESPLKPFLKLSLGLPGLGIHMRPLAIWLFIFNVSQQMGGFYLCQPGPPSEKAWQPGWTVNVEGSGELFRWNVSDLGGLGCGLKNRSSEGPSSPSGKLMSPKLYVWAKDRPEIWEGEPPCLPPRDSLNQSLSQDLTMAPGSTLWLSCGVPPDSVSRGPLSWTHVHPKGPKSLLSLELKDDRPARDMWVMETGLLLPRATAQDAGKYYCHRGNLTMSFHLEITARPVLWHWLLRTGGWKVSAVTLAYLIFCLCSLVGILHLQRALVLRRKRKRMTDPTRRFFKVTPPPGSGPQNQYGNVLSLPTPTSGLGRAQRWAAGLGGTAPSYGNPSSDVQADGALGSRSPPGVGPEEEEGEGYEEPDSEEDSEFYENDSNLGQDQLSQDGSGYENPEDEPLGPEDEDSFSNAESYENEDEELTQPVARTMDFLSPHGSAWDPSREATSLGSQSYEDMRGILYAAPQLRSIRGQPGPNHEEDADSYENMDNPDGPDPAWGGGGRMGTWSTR
Assay procedure: cell-based or functional assay
Value type: EC50 of cytotoxicity (LDH), sCAR-T cells + switch vs CD19+ RS4;11, assay DTR-5-15 (PBMC) (pM)

{"columns": ["Binder", "Numeric value"],
 "data": [
  ["hFMCL2b(A92N)-LCNT/hFMCH4c(Q1E) (Fab, V domains shown) VH: EVQLQESGPGLVKPSETLSVTCTVSGVSLPDYGVSWIRQPPGKGLEWLGVIWGSETTYYNSALKSRLTISKDNSKNQVSLKMSSLTAADTAVYYCAKHYYYGGSYAMDYWGQGTLVTVSS VL: DIQMTQSPSSLSASVGDRVTITCRASQDISKYLNWYQQKPGKAVKLLIYHTSRLHSGVPSRFSGSGSGTDYTLTISSLQPEDFATYFCQQGNTLPYTFGQGTKLEIK", 8.73],
  ["hFMCL2-LCNT/hFMCH4c (Fab, V domains shown) VH: QVQLQESGPGLVKPSETLSVTCTVSGVSLPDYGVSWIRQPPGKGLEWLGVIWGSETTYYNSALKSRLTISKDNSKNQVSLKMSSLTAADTAVYYCAKHYYYGGSYAMDYWGQGTLVTVSS VL: DIQMTQSPSSLSASVGDRVTITCRASQDISKYLNWYQQKPGKAPKLLIYHTSRLHSGVPSRFSGSGSGTDYTLTISSLQPEDFATYYCQQGATLPYTFGQGTKLEIK", 16.6],
  ["hFMCL2c-LCNT/hFMCH4b (Fab, V domains shown) VH: QVQLQESGPGLVKPSETLSVTCTVSGVSLPDYGVSWIRQPPGKGLEWLGVIWGSETTYYNPSLKSRLTISKDNSKNQVSLKMSSLTAADTAVYYCAKHYYYGGSYAMDYWGQGTLVTVSS VL: DIQMTQSPSSLSASVGDRVTITCRASQDISKYLNWYQQKPGKAVKLLIYHTSRLHSGVPSRFSGSGSGTDYTLTISSLQPEDFATYFCQQGATLPYTFGQGTKLEIK", 4.04],
  ["hFMCL2b/H4b(Q1E-V20L)-WT (antibody, V domains shown) VH: EVQLQESGPGLVKPSETLSLTCTVSGVSLPDYGVSWIRQPPGKGLEWLGVIWGSETTYYNPSLKSRLTISKDNSKNQVSLKMSSLTAADTAVYYCAKHYYYGGSYAMDYWGQGTLVTVSS VL: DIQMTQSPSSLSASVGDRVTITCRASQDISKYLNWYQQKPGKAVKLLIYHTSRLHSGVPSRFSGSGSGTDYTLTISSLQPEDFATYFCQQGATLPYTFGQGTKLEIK", 9.63],
  ["hFMCL2b-LCNT/hFMCH4b (Fab, V domains shown) VH: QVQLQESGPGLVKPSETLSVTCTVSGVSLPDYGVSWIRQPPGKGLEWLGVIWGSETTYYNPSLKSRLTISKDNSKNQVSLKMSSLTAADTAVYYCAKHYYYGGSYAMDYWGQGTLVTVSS VL: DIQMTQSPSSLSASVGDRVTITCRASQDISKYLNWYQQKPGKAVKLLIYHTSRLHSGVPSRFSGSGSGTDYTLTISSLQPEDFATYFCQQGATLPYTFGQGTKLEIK", 5.17]
]}
